Data provenance is patent US8859783B2.

- Tested on: HT1080 human fibro sarcoma cell
- protocol-notes: SRB cell proliferation assay, HT1080
- Type: cell-based
- experimental-conditions: HT-1080, 72 h, 3 days
quantity-name: pIC50
Reminder that pIC50 is minus the log10 of a molar concentration.

Lab note: measured pIC50 of O=C1Nc2ccc(OC(F)(F)F)cc2/C1=C1/Nc2ccc(F)cc2C1=NO [Compound 13d] was 5.40

Lab note: measured pIC50 of O=C1Nc2ccc(F)cc2/C1=C1/Nc2ccc(O)cc2C1=NO [Compound 11c] was 6.17

Lab note: measured pIC50 of O=C1Nc2ccc(Cl)cc2/C1=C1/Nc2ccc(Cl)cc2C1=NO [Compound 12a] was 4.91

Lab note: measured pIC50 of O=C1Nc2ccc([N+](=O)[O-])cc2/C1=C1/Nc2ccc(Cl)cc2C1=NO [Compound 12b] was 5.90

Lab note: measured pIC50 of O=C1Nc2ccc(F)cc2/C1=C1/Nc2ccc(Cl)cc2C1=NO [Compound 12c] was 5.44

Lab note: measured pIC50 of O=C1Nc2ccc(Cl)cc2/C1=C1/Nc2ccc(O)cc2C1=NO [Compound 11a] was 5.53

Lab note: measured pIC50 of Cc1ccc2c(c1)C(=NO)/C(=C1/C(=O)Nc3ccc([N+](=O)[O-])cc31)N2 [Compound 14b] was 5.41

====

- Tested on: A549 human lung cancer cell
- protocol-notes: SRB cell proliferation assay, A549
- Format: cell-based
- experimental-conditions: A549, 72 h, 3 days
So I've got a bunch of molecules here, and I need their pIC50 values.
Reminder that pIC50 is minus the log10 of a molar concentration.

Summary: O=C1Nc2ccc([N+](=O)[O-])cc2/C1=C1/Nc2ccc(Cl)cc2C1=NO [Compound 12b] , A549 human lung cancer cell, pIC50 = 4.81

Summary: O=C1Nc2ccc([N+](=O)[O-])cc2C1=C1Nc2ccc(Br)cc2C1=NO [Compound 2, 5′-Bromo-5-nitro-indirubin-3′-oxime, reference compound] , A549 human lung cancer cell, pIC50 = 4.77

Summary: O=C1Nc2ccc(F)cc2/C1=C1/Nc2ccc(Cl)cc2C1=NO [Compound 12c] , A549 human lung cancer cell, pIC50 = 4.72

Summary: COc1ccc2c(c1)C(=NO)/C(=C1/C(=O)Nc3ccc(F)cc31)N2 [Compound 16b] , A549 human lung cancer cell, pIC50 = 5.17

Summary: O=C1Nc2ccc(OC(F)(F)F)cc2/C1=C1/Nc2ccc(O)cc2C1=NO [Compound 11d] , A549 human lung cancer cell, pIC50 = 4.77

Summary: O=C1Nc2ccc(F)cc2/C1=C1/Nc2ccc(O)cc2C1=NO [Compound 11c] , A549 human lung cancer cell, pIC50 = 5.39

Summary: O=C1Nc2ccc(F)cc2/C1=C1/Nc2ccc(F)cc2C1=NO [Compound 13c] , A549 human lung cancer cell, pIC50 = 4.99

Summary: O=C1Nc2ccc(OC(F)(F)F)cc2/C1=C1/Nc2ccc(F)cc2C1=NO [Compound 13d] , A549 human lung cancer cell, pIC50 = 4.70

====

- System: SNU638 human stomach cancer cell
- protocol-notes: SRB cell proliferation assay, SNU638
- Assay type: cell-based
- experimental-conditions: SNU-638, 72 h, 3 days
So I've got a bunch of compounds here, and I need their IC50 values.

Lab note: measured IC50 of COc1ccc2c(c1)C(=NO)/C(=C1/C(=O)Nc3ccc([N+](=O)[O-])cc31)N2 [Compound 16a] was > 20 µM

Lab note: measured IC50 of COc1ccc2c(c1)C(=NO)/C(=C1/C(=O)Nc3ccc(OC(F)(F)F)cc31)N2 [Compound 16c] was > 20 µM

Lab note: measured IC50 of Cc1ccc2c(c1)C(=NO)/C(=C1/C(=O)Nc3ccc(OC(F)(F)F)cc31)N2 [Compound 14d] was > 20 µM

====

- study-target: CDK2/cyclin E (Homo sapiens, UniProt P24941)
- protocol-notes: CDK2/cyclin E kinase assay
- experimental-conditions: ten concentrations, dose response curves; read-out: CDK2/cyclin E inhibitory activity IC50
- Procedure: CDK1/cyclin B, CDK2/cyclin E were purchased from Milipore (Billerica, Mass.). The kinase activity was tested in buffer (8 mM MOPS pH 7.0, 0.2 mM EDTA, 10 mM MgAcetate), with 0.1 mg/mL histone H1, in the presence of 45 µM [—^33P] ATP (500 cpm/pmol) for CDK1 or 120 μM [γ—^33P] […] The wet filters were counted in the presence of 1 mL of ACS (Amersham) scintillation fluid. The activities are usually expressed as a percentage of the maximal activity, i.e., in the absence of inhibitors. […]
quantity-name: pIC50
Reminder that pIC50 is minus the log10 of a molar concentration.

Lab note: measured pIC50 of O=C1Nc2ccc(Cl)cc2/C1=C1/Nc2ccc(F)cc2C1=NO [Compound 13a] was 8.10

Lab note: measured pIC50 of Cc1ccc2c(c1)C(=NO)/C(=C1/C(=O)Nc3ccc([N+](=O)[O-])cc31)N2 [Compound 14b] was 8.06

Lab note: measured pIC50 of O=C1Nc2ccc(Cl)cc2/C1=C1/Nc2ccc(Cl)cc2C1=NO [Compound 12a] was 7.95

====

- System: KB human nasopharyngeal cancer cell
- protocol-notes: SRB cell proliferation assay, KB
- Assay type: cell-based
- experimental-conditions: 72 h, 3 days
quantity-name: IC50 (µM)
Kindly provide the numeric value in µM only, without the unit symbol.

Lab note: measured IC50 of O=C1Nc2ccc(Cl)cc2/C1=C1/Nc2ccc(F)cc2C1=NO [Compound 13a] was 9.1

Lab note: measured IC50 of O=C1Nc2ccc([N+](=O)[O-])cc2/C1=C1/Nc2ccc(F)cc2C1=NO [Compound 13b] was 0.9

Lab note: measured IC50 of O=C1Nc2ccc(F)cc2/C1=C1/Nc2ccc(Cl)cc2C1=NO [Compound 12c] was 3.6

Lab note: measured IC50 of O=C1Nc2ccc([N+](=O)[O-])cc2/C1=C1/Nc2ccc(Cl)cc2C1=NO [Compound 12b] was 1.1

====

- Test system: HT1080 human fibro sarcoma cell
- protocol-notes: SRB cell proliferation assay, HT1080
- Assay type: cell-based
- experimental-conditions: HT-1080, 72 h, 3 days
pIC50: −log10 of the molar value.
So I've got a bunch of compounds here, and I need their pIC50 values.

Lab note: measured pIC50 of Cc1ccc2c(c1)C(=NO)/C(=C1/C(=O)Nc3ccc(F)cc31)N2 [Compound 14c] was < 4.70

Lab note: measured pIC50 of COc1ccc2c(c1)C(=NO)/C(=C1/C(=O)Nc3ccc(OC(F)(F)F)cc31)N2 [Compound 16c] was < 4.70

Lab note: measured pIC50 of Cc1ccc2c(c1)C(=NO)/C(=C1/C(=O)Nc3ccc(OC(F)(F)F)cc31)N2 [Compound 14d] was < 4.70
